src = ChEMBL document CHEMBL1155932

# assayedSystem: Luciferin 4-monooxygenase (Luciola lateralis) (UniProt Q01158)
# Sequence (whole entry): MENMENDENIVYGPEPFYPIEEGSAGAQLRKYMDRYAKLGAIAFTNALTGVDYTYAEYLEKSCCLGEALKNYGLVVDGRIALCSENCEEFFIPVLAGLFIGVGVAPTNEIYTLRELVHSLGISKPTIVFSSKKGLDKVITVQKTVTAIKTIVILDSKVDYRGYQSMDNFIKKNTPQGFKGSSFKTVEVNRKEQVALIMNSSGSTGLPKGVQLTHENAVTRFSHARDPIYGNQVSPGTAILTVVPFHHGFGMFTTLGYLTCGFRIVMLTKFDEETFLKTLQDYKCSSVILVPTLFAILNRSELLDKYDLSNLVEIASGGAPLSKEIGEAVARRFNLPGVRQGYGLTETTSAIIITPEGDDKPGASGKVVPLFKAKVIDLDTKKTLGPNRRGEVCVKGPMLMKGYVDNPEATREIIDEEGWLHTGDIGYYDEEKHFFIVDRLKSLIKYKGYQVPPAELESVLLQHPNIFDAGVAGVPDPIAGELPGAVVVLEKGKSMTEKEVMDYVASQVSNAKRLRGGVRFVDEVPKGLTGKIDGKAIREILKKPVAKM
# assayMethodText: Inhibition of firefly luciferase activity at 10 uM
# runParameters: Aquatica lateralis
valueType: inhibition (%)

O=C(Nc1ccc(-c2ccc(C(F)(F)F)cc2)cn1)c1ccccc1 | 39
CC(C)Oc1ccc(-c2ccc(NC(=O)c3ccccc3)nc2)cc1 | 38
COc1ccc(C(=O)Nc2ccc(-c3ccccc3)cn2)cc1 | 28
O=C(Nc1ccccc1)Nc1ccc(-c2ccccc2)cn1 | 20
CN(C)c1ccc(C(=O)Nc2ccc(-c3ccccc3)cn2)cc1 | 35
O=C(Nc1ccc(-c2cccc(Cl)c2)cn1)c1ccccc1 | 38
Cc1ccc(-c2ccc(NC(=O)c3ccccc3)nc2)cc1 | 51
Cc1ccc(C(=O)Nc2ccc(-c3ccccc3)cn2)cc1 | 18
O=C(Nc1ccccn1)c1ccccc1 | 27
CCCC(=O)Nc1ccc(-c2ccccc2)cn1 | 22
CC(C)Oc1ccc(C(=O)Nc2ccc(-c3ccccc3)cn2)cc1 | 12
O=C(Nc1ccc(-c2ccccc2)cn1)Oc1ccccc1 | 0
